Recorded values, source the OPERA property sets (Mansouri et al. 2018).

metricName: log10 vapour pressure (mmHg)

[[record]]
molecule = "BrCCBr"
metricname = "log10 vapour pressure (mmHg)"
observedmeasurement = 1.05

[[record]]
molecule = "CC1(C)CCC(Cc2ccc(Cl)cc2)C1(O)Cn1cncn1 (stereo not given)"
metricname = "log10 vapour pressure (mmHg)"
observedmeasurement = -7.03

[[record]]
molecule = "CNC(=O)Oc1ccccc1C(C)C"
metricname = "log10 vapour pressure (mmHg)"
observedmeasurement = -4.68

[[record]]
molecule = "CCOS(C)(=O)=O"
metricname = "log10 vapour pressure (mmHg)"
observedmeasurement = -0.686

[[record]]
molecule = "CC(C)=C(C)C(C)C"
metricname = "log10 vapour pressure (mmHg)"
observedmeasurement = 1.35

[[record]]
molecule = "CC1(C)CCCC1"
metricname = "log10 vapour pressure (mmHg)"
observedmeasurement = 1.88

[[record]]
molecule = "Cc1cc(Cl)cc2c1SC(=C1Sc3c(C)cc(Cl)cc3C1=O)C2=O"
metricname = "log10 vapour pressure (mmHg)"
observedmeasurement = -9.52

[[record]]
molecule = "CCCCOC(=O)C(C)O (stereo not given)"
metricname = "log10 vapour pressure (mmHg)"
observedmeasurement = -0.398

[[record]]
molecule = "CCCCCCCCCCCCCCC(=O)O"
metricname = "log10 vapour pressure (mmHg)"
observedmeasurement = -6.36

[[record]]
molecule = "Nc1cccc(Cl)c1"
metricname = "log10 vapour pressure (mmHg)"
observedmeasurement = -1.18

[[record]]
molecule = "CC1CCCC(=O)C1 (stereo not given)"
metricname = "log10 vapour pressure (mmHg)"
observedmeasurement = 0.176

[[record]]
molecule = "C#CCOc1cc(-n2nc3n(c2=O)CCCC3)c(Cl)cc1Cl"
metricname = "log10 vapour pressure (mmHg)"
observedmeasurement = -11.1

[[record]]
molecule = "CC(C)O"
metricname = "log10 vapour pressure (mmHg)"
observedmeasurement = 1.66

[[record]]
molecule = "CCC#N"
metricname = "log10 vapour pressure (mmHg)"
observedmeasurement = 1.68

[[record]]
molecule = "O=C(O)c1ccccc1Cl"
metricname = "log10 vapour pressure (mmHg)"
observedmeasurement = -3.18

[[record]]
molecule = "CC(C)(C)NC=O"
metricname = "log10 vapour pressure (mmHg)"
observedmeasurement = -0.569

[[record]]
molecule = "COCC(C)N(C(=O)CCl)c1c(C)csc1C (stereo not given)"
metricname = "log10 vapour pressure (mmHg)"
observedmeasurement = -3.56

[[record]]
molecule = "CCc1ccccc1C"
metricname = "log10 vapour pressure (mmHg)"
observedmeasurement = 0.417

[[record]]
molecule = "COC(=O)[C@@H]1C2CCC(C[C@@H]1OC(=O)c1ccccc1)N2C (stereo not given in full)"
metricname = "log10 vapour pressure (mmHg)"
observedmeasurement = -6.72

[[record]]
molecule = "COCC(C)O (stereo not given)"
metricname = "log10 vapour pressure (mmHg)"
observedmeasurement = 1.1

[[record]]
molecule = "CC(C)c1ccccc1O"
metricname = "log10 vapour pressure (mmHg)"
observedmeasurement = -1

[[record]]
molecule = "CC1CCCCC1NC(=O)Nc1ccccc1 (stereo not given)"
metricname = "log10 vapour pressure (mmHg)"
observedmeasurement = -8.4

[[record]]
molecule = "CC(C)CCC(C)(C)C"
metricname = "log10 vapour pressure (mmHg)"
observedmeasurement = 1.22

[[record]]
molecule = "COc1ccccc1O"
metricname = "log10 vapour pressure (mmHg)"
observedmeasurement = -0.987

[[record]]
molecule = "O=Cc1ccccc1Cl"
metricname = "log10 vapour pressure (mmHg)"
observedmeasurement = -0.638

[[record]]
molecule = "Clc1ccccc1Cl"
metricname = "log10 vapour pressure (mmHg)"
observedmeasurement = 0.134

[[record]]
molecule = "CCCCOC(=O)CCC"
metricname = "log10 vapour pressure (mmHg)"
observedmeasurement = 0.258

[[record]]
molecule = "CCCCOCC"
metricname = "log10 vapour pressure (mmHg)"
observedmeasurement = 1.71

[[record]]
molecule = "CCCCCCc1ccccc1"
metricname = "log10 vapour pressure (mmHg)"
observedmeasurement = -0.919

[[record]]
molecule = "C=Cc1ccc(O)cc1"
metricname = "log10 vapour pressure (mmHg)"
observedmeasurement = -1.85

[[record]]
molecule = "Oc1cccc(O)c1"
metricname = "log10 vapour pressure (mmHg)"
observedmeasurement = -3.31

[[record]]
molecule = "CC(=O)c1ccc2ccccc2c1"
metricname = "log10 vapour pressure (mmHg)"
observedmeasurement = -3.21

[[record]]
molecule = "Clc1cc(Cl)c(Cl)cc1Cl"
metricname = "log10 vapour pressure (mmHg)"
observedmeasurement = -2.27

[[record]]
molecule = "O=C1c2ccccc2C(=O)c2c1ccc(O)c2O"
metricname = "log10 vapour pressure (mmHg)"
observedmeasurement = -9.06

[[record]]
molecule = "CCNc1nc(Cl)nc(NC(C)(C)C)n1"
metricname = "log10 vapour pressure (mmHg)"
observedmeasurement = -5.95

